assay: Binary supramolecular self-assembly systems of polymer and target: guest concentration over incubation time (Comparative Example 2); type: physicochemical; settings: binary system with 0.5% polymer 107; incubation 3 h
Recorded Concentration of the target in the solution measured after different incubation time for the following compounds
Recorded Metric: Concentration of the target in the solution measured after different incubation time (µg/mL)

In [3]: df
Out[3]:
                                   compound  measurement_units  test_value
0  O=C(O)[C@H]1O[C@@H](Oc2cc3oc(-c4ccc(O)cc4)cc(=O)c3c(O)c2O)[C@H](O)[C@@H](O)[C@@H]1O [Scutellarin, scutellarin]              µg/mL        41.7
1  O=C1[C@@H]2[C@H]3CC[C@H](C3)[C@@H]2C(=O)N1C[C@@H]1CCCC[C@H]1CN1CCN(c2nsc3ccccc23)CC1 [Lurasidone, lurasidone]              µg/mL         2.4
2  COc1cc2nccc(Oc3ccc(NC(=O)NC4CC4)c(Cl)c3)c2cc1C(N)=O [Lenvatinib]              µg/mL         9.7

---

experiment: Binary supramolecular self-assembly systems of polymer and target: guest concentration over incubation time (Comparative Example 2); assay type: physicochemical; conditions: binary: 0.5% 102H; 6 h
This listing pairs compounds with measured Times that of the initial medium.
Recorded Metric: Times that of the initial medium

>>> df
                                   compound  test_value
0  CNC(=O)c1cc(Oc2ccc(NC(=O)Nc3ccc(Cl)c(C(F)(F)F)c3)cc2)ccn1  18.4 times
1  O=C1C[C@@H](c2ccc(O)cc2)Oc2cc(O)cc(O)c21   3.0 times
2  COc1ccc(-n2nc(C(N)=O)c3c2C(=O)N(c2ccc(N4CCCCC4=O)cc2)CC3)cc1   6.7 times
3  CCCNS(=O)(=O)Nc1ncnc(OCCOc2ncc(Br)cn2)c1-c1ccc(Br)cc1  10.4 times
4  CC(=O)c1c(C)c2cnc(Nc3ccc(N4CCNCC4)cn3)nc2n(C2CCCC2)c1=O   4.9 times
5  O=C1[C@H](CC[C@H](O)c2ccc(F)cc2)[C@@H](c2ccc(O)cc2)N1c1ccc(F)cc1  13.5 times
6  CNC(=O)c1ccc(N2C(=S)N(c3ccc(C#N)c(C(F)(F)F)c3)C(=O)C2(C)C)cc1F [Enzalutamide]   1.7 times

---

Test: Binary supramolecular self-assembly systems of polymer and target: guest concentration over incubation time (Comparative Example 2)
Type: physicochemical
Details: binary system with 0.5% polymer 104; incubation 0.5 h
Description: Experiments were conducted according to the steps in Comparative Example 1, and quantitative analysis was carried out using the analytical method for each target to investigate the regulation ability […] stacking.
Given measured Concentration of the target in the solution measured after different incubation time, output condition met if it is greater than or equal to 30000 ng/mL and condition not met if not.

>>> df
                                   molecule     assigned_label
0  C=CC(=O)N1CCC[C@@H](n2nc(-c3ccc(Oc4ccccc4)cc3)c3c(N)ncnc32)C1  condition not met
1  CNC(=O)c1cc(Oc2ccc(NC(=O)Nc3ccc(Cl)c(C(F)(F)F)c3)cc2)ccn1      condition met
2  CCCSc1nc(N[C@@H]2C[C@H]2c2ccc(F)c(F)c2)c2nnn([C@@H]3C[C@H](OCCO)[C@@H](O)[C@H]3O)c2n1  condition not met
3  CCC(C)n1ncn(-c2ccc(N3CCN(c4ccc(OCC5COC(Cn6cncn6)(c6ccc(Cl)cc6Cl)O5)cc4)CC3)cc2)c1=O (stereo not drawn)      condition met
4  CC(C)OC(=O)CCC/C=C\C[C@@H]1[C@@H](/C=C/C(F)(F)COc2ccccc2)[C@H](O)C[C@@H]1O  condition not met
5  CC(=O)c1c(C)c2cnc(Nc3ccc(N4CCNCC4)cn3)nc2n(C2CCCC2)c1=O      condition met
6  COc1cc2nccc(Oc3ccc(NC(=O)NC4CC4)c(Cl)c3)c2cc1C(N)=O      condition met
7  O=C1[C@H](CC[C@H](O)c2ccc(F)cc2)[C@@H](c2ccc(O)cc2)N1c1ccc(F)cc1  condition not met
8  Cc1cn(-c2cc(NC(=O)c3ccc(C)c(Nc4nccc(-c5cccnc5)n4)c3)cc(C(F)(F)F)c2)cn1      condition met

---

test: Binary supramolecular self-assembly systems of polymer and target: guest concentration over incubation time (Comparative Example 2); assay type: physicochemical; settings: binary system with 0.5% polymer 103; incubation 3 h
Some compounds, each annotated with its measured Concentration of the target in the solution measured after different incubation time.
Recorded Metric: Concentration of the target in the solution measured after different incubation time

                                   compound   test_value
0  CCCCC1OC(=O)c2ccccc21 (centres unmarked) [Butylphthalide]  230.8 µg/mL
1  Cc1ccc(-c2cc(C(F)(F)F)nn2-c2ccc(S(N)(=O)=O)cc2)cc1   32.2 µg/mL
2  CCC(C)n1ncn(-c2ccc(N3CCN(c4ccc(OCC5COC(Cn6cncn6)(c6ccc(Cl)cc6Cl)O5)cc4)CC3)cc2)c1=O (centres unmarked)    8.6 µg/mL
3  CC#CC(=O)N1CCC[C@H]1c1nc(-c2ccc(C(=O)Nc3ccccn3)cc2)c2c(N)nccn12  321.4 µg/mL
4  O=C1C[C@@H](c2ccc(O)cc2)Oc2cc(O)cc(O)c21  231.0 µg/mL
5  CCc1cc2c(cc1N1CCC(N3CCOCC3)CC1)C(C)(C)c1[nH]c3cc(C#N)ccc3c1C2=O    0.9 µg/mL
6  CCOc1nc2cccc(C(=O)OC(C)OC(=O)OC3CCCCC3)c2n1Cc1ccc(-c2ccccc2-c2nnn[nH]2)cc1 (centres unmarked)  110.5 µg/mL
7  CCOC(=O)C1=C(C)NC(C)=C(C(=O)OC)C1c1cccc(Cl)c1Cl (centres unmarked)   18.9 µg/mL

---

Test: Binary supramolecular self-assembly systems of polymer and target: guest concentration over incubation time (Comparative Example 2)
Assay type: physicochemical
Settings: binary system with 0.5% polymer 103; incubation 0.5 h
Experimental: Experiments were conducted according to the steps in Comparative Example 1, and quantitative analysis was carried out using the analytical method for each target to investigate the regulation ability […] stacking.
Recorded Metric: Concentration of the target in the solution measured after different incubation time (ng/mL)

Compound	Measurement Units	Test Value
CNC(=O)c1cc(Oc2ccc(NC(=O)Nc3ccc(Cl)c(C(F)(F)F)c3)cc2)ccn1	ng/mL	602500
C=CC[C@@H]1/C=C(\C)C[C@H](C)C[C@H](OC)[C@H]2O[C@@](O)(C(=O)C(=O)N3CCCC[C@H]3C(=O)O[C@H](/C(C)=C/[C@@H]3CC[C@@H](O)[C@H](OC)C3)[C@H](C)[C@@H](O)CC1=O)[C@H](C)C[C@@H]2OC	ng/mL	46800
CCc1cc2c(cc1N1CCC(N3CCOCC3)CC1)C(C)(C)c1[nH]c3cc(C#N)ccc3c1C2=O	ng/mL	1000
C=C(C)[C@@H]1CCC(C)=C[C@H]1c1c(O)cc(CCCCC)cc1O	ng/mL	54800
COc1cc(/C=C/C(=O)CC(=O)/C=C/c2ccc(O)c(OC)c2)ccc1O	ng/mL	76100
CCCSc1nc(N[C@@H]2C[C@H]2c2ccc(F)c(F)c2)c2nnn([C@@H]3C[C@H](OCCO)[C@@H](O)[C@H]3O)c2n1	ng/mL	19200
C=CC(=O)N1CCC[C@@H](n2nc(-c3ccc(Oc4ccccc4)cc3)c3c(N)ncnc32)C1	ng/mL	44100
CCOC(=O)C1=C(C)NC(C)=C(C(=O)OC)C1c1cccc(Cl)c1Cl (centres unmarked)	ng/mL	18900
O=C1[C@H](CC[C@H](O)c2ccc(F)cc2)[C@@H](c2ccc(O)cc2)N1c1ccc(F)cc1	ng/mL	8400
O=C(O)[C@H]1O[C@@H](Oc2cc3oc(-c4ccc(O)cc4)cc(=O)c3c(O)c2O)[C@H](O)[C@@H](O)[C@@H]1O	ng/mL	40400
CC#CC(=O)N1CCC[C@H]1c1nc(-c2ccc(C(=O)Nc3ccccn3)cc2)c2c(N)nccn12	ng/mL	292100

---

assay: Binary supramolecular self-assembly systems of polymer and target: guest concentration over incubation time (Comparative Example 2); type: physicochemical; conditions: binary system with 0.5% polymer 106; incubation 6 h
The label is 1 for Concentration of the target in the solution measured after different incubation time below 60 µg/mL and 0 for Concentration of the target in the solution measured after different incubation time equal to or exceeding 60 µg/mL.

>>> print(df.to_string())
                                   compound  assigned_label
0  CCCCC1OC(=O)c2ccccc21 (centres unmarked) [Butylphthalide]               0
1  COc1cc2nccc(Oc3ccc(NC(=O)NC4CC4)c(Cl)c3)c2cc1C(N)=O [Lenvatinib]               1
2  CCCSc1nc(N[C@@H]2C[C@H]2c2ccc(F)c(F)c2)c2nnn([C@@H]3C[C@H](OCCO)[C@@H](O)[C@H]3O)c2n1 [Ticagrelor]               1
3  CC#CC(=O)N1CCC[C@H]1c1nc(-c2ccc(C(=O)Nc3ccccn3)cc2)c2c(N)nccn12 [Acalabrutinib, acalabrutinib]               0
4  CCOC(=O)C1=C(C)NC(C)=C(C(=O)OC)C1c1cccc(Cl)c1Cl (centres unmarked) [Felodipine]               1
5  COC(=O)[C@H](c1ccccc1Cl)N1CCc2sccc2C1 [Clopidogrel, clopidogrel]               1
6  Cc1ccc(-c2cc(C(F)(F)F)nn2-c2ccc(S(N)(=O)=O)cc2)cc1 [Celecoxib]               1

Data provenance: patent US20250339399A1
